Assayed target: pY705-STAT3 in PBMC (Homo sapiens, UniProt P40763)
Construct: Cryopreserved Peripheral Blood Mononuclear Cells (PBMC) are from AllCells; host or cells: cryopreserved PBMC
Sequence (P40763 whole entry): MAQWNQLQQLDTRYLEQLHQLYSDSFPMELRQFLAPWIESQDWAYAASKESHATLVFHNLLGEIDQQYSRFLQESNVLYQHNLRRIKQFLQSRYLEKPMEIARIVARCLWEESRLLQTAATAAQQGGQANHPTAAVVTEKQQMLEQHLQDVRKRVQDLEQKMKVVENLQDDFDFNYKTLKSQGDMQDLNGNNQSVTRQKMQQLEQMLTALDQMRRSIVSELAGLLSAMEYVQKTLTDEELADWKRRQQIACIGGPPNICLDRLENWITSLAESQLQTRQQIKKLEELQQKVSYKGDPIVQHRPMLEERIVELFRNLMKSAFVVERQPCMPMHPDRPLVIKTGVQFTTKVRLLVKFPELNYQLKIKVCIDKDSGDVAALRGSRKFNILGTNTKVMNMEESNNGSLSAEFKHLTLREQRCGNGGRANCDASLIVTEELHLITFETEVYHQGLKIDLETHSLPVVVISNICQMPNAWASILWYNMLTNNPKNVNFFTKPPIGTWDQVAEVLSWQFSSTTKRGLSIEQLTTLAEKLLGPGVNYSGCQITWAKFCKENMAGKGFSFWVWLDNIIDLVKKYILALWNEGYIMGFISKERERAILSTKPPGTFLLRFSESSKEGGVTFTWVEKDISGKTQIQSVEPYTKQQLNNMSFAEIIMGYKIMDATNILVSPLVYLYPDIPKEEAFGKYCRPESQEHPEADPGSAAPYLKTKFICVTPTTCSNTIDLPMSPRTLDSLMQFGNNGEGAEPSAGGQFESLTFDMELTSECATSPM
Assay text: MSD-pSTAT-PBMC Assay (pSTAT3, IL-6 stimulated)
Assay type: cell-based
Stated conditions: PBMC, compound 3 hrs, then 10 ng/mL IL-6 for 10 min; Table 115; read-out: STAT3
Measured property: IC50

Worked examples follow.
INSERT INTO assay_data (compound, assayed_target, result) VALUES
  ('C[C@H](NP(=O)(Cc1ccc2sc(C(=O)N[C@H]3CCC[C@H]4CC[C@@H](C(=O)N5CC(c6cccnc6)C5)N4C3=O)cc2c1)Oc1ccccc1)C(=O)OCC(C)(C)C (some centres unmarked)', 'pY705-STAT3 in PBMC (Homo sapiens, UniProt P40763)', '< 0.1 µM'),
  ('CC(C)CC(=O)SCCOP(=O)(OCCSC(=O)CC(C)C)[C@@H](F)c1ccc2sc(C(=O)N[C@H]3CCCC[C@H]4CC[C@@H](C(=O)N5C[C@@H](C#N)[C@H](c6cc[nH]c(=O)c6)C5)N4C3=O)cc2c1 (single isomer, unassigned)', 'pY705-STAT3 in PBMC (Homo sapiens, UniProt P40763)', '1 to 3 µM'),
  ('CCCOC(=O)[C@H](C)NP(=O)(Oc1ccccc1)C(F)c1ccc2sc(C(=O)N[C@H]3CCCC[C@H]4CC[C@@H](C(=O)N[C@H]5CN(C(N)=O)C[C@@H]5F)N4C3=O)cc2c1 (some centres unmarked)', 'pY705-STAT3 in PBMC (Homo sapiens, UniProt P40763)', '1 to 3 µM');

-- ask // lookup IC50 | system=pY705-STAT3 in PBMC (Homo sapiens, UniProt P40763) | key= CCCOC(=O)[C@H](C)NP(=O)(Cc1ccc2sc(C(=O)N[C@H]3CCC[C@H]4CC[C@@H](C(=O)N5CC(c6cnccc6O)C5)N4C3=O)cc2c1)Oc1ccccc1 (some centres unmarked)
-- reply < 0.1 µM

-- ask // lookup IC50 | system=pY705-STAT3 in PBMC (Homo sapiens, UniProt P40763) | key= O=C(N[C@H]1CCC[C@H]2CC[C@@H](C(=O)N3CC(c4cccnc4)C3)N2C1=O)c1cc2cc(CP(=O)(N[C@H]3CCOC3=O)Oc3ccccc3)ccc2s1 (some centres unmarked)
-- reply > 3 µM
